EXPERIMENT SUMMARY: Single dose PK, phase 1, healthy European men
Assay type: in vivo, human
DETAILS: male, human, plasma, single SC 0.03 mg, geometric mean, read-out: Vz/F
Where a SMILES comes first, the peptide text is derived from it. [ ]: non-standard residue; d: D form. Arg(Me) = CNC(=N)NCCC[C@H](N)C(=O)O; Hyp = O=C(O)[C@@H]1C[C@@H](O)CN1; azaGly = NNC(=O)O
RECORDED METRIC: Vd/F (L)
Please state the figure in L; there is no need to write the unit.

Dear colleague, please send me the reported Vd/F for CC(=O)O.CNC(=N)NCCC[C@H](NC(=O)[C@H](CC(C)C)NC(=O)NNC(=O)[C@H](Cc1ccccc1)NC(=O)[C@@H](NC(=O)[C@H](CC(N)=O)NC(=O)[C@@H]1C[C@@H](O)CN1C(=O)[C@@H](Cc1ccc(O)cc1)NC(C)=O)[C@@H](C)O)C(=O)N[C@@H](Cc1c[nH]c2ccccc12)C(N)=O [API-MA] (Ac-[dY][Hyp]NTF[azaGly]L[Arg(Me)]W-NH2) when you can.
96
